- EXPERIMENTAL PROTOCOL: Clearance in cynomolgus monkey at 0.5 mg/kg, iv or […], po by LC-MS/MS method
- Assay type: ADME, organism-based, Macaca fascicularis
- SETTINGS: in vivo
ASSAY METRIC: clearance (L/h/kg)
Write down the numeric answer in L/h/kg and omit the unit.

Task: Give recorded clearance. `C[C@H]1Cc2c(nnn2-c2ncc(F)cn2)CN1C(=O)c1ccnc(C(F)(F)F)c1F`
Output: 0.156

###

- EXPERIMENTAL PROTOCOL: AUC in rat at 125 mg/kg, po for 5 days
- Format: ADME, organism-based
- SETTINGS: in vivo
ASSAY METRIC: AUC at 120 h
Show the value, then the unit it is measured in.

Task: Give recorded AUC at 120 h. `C[C@H]1Cc2c(nnn2-c2ncc(F)cn2)CN1C(=O)c1ccnc(C(F)(F)F)c1F`
Output: 291 µg·h/mL
